Value source: ChEMBL document CHEMBL5150011

Experiment: Acid dissociation constant, pKa of the compound
Format: physicochemical
PARAMETER_MEASURED: pKa
Just the number, please, no unit after it.

-- ask Give me measured pKa, please, for this compound: CC(C)C(=O)OCOC(=O)c1c(F)ccc2c1O[B-](O)(O)[C@@H]1C[C@H]21.[Na+]
-- reply 4.8

###

Test: Half life in human serum measured upto 30 min by HPLC analysis
Format: ADME, cell-free
PARAMETER_MEASURED: half-life

-- ask Give me measured half-life, please, for this molecule: O=C(OCOC(=O)C1CC1)c1c(F)ccc2c1OB(O)[C@@H]1C[C@H]21
-- reply > 1 h

-- ask Give me measured half-life, please, for this molecule: CCCC(=O)OCOC(=O)c1c(F)ccc2c1OB(O)[C@@H]1C[C@H]21
-- reply > 1 h

-- ask Give me measured half-life, please, for this molecule: O=C(OCOC(=O)c1c(F)ccc2c1OB(O)[C@@H]1C[C@H]21)OC1CCOCC1
-- reply > 0.5 h

-- ask Give me measured half-life, please, for this molecule: CN(C)C(=O)COC(=O)OCOC(=O)c1c(F)ccc2c1OB(O)[C@@H]1C[C@H]21
-- reply > 1 h

-- ask Give me measured half-life, please, for this molecule: O=C(OCOC(=O)c1c(F)ccc2c1OB(O)[C@@H]1C[C@H]21)OC1COC1
-- reply 0.183 h

-- ask Give me measured half-life, please, for this molecule: CCOC(=O)OCOC(=O)c1c(F)ccc2c1OB(O)[C@@H]1C[C@H]21
-- reply > 1 h

-- ask Give me measured half-life, please, for this molecule: CC(C)C(=O)OCOC(=O)c1c(F)ccc2c1OB(O)[C@@H]1C[C@H]21
-- reply > 1 h

###

Assay: Oral bioavailability in rat
Assay type: ADME, organism-based
Conditions: in vivo
PARAMETER_MEASURED: bioavailability (%)
// units = %; emit number, no label

-- ask Give me measured bioavailability, please, for this compound: O=C(O)c1c(F)ccc2c1OB(O)[C@@H]1C[C@H]21 [XERUBORBACTAM]
-- reply 50

###

Test: Half life in monkey liver microsomes measured upto 30 min in presence of NADPH by HPLC analysis
Format: ADME, Macaca mulatta, Microsome
Details: rhesus monkey
PARAMETER_MEASURED: half-life (min)
// units = min; emit number, no label

-- ask Give me measured half-life, please, for this compound: CCCC(=O)OCOC(=O)c1c(F)ccc2c1OB(O)[C@@H]1C[C@H]21
-- reply 2

-- ask Give me measured half-life, please, for this compound: CC(C)C(=O)OCOC(=O)c1c(F)ccc2c1OB(O)[C@@H]1C[C@H]21
-- reply 2

-- ask Give me measured half-life, please, for this compound: CC(=O)OCOC(=O)c1c(F)ccc2c1OB(O)[C@@H]1C[C@H]21
-- reply 3

###

Experiment: Half life in human serum measured upto 30 min by HPLC analysis
Format: ADME, cell-free
For each record, write down the corresponding half-life.

-- ask Give me measured half-life, please, for this compound: CC(=O)OCOC(=O)c1c(F)ccc2c1OB(O)[C@@H]1C[C@H]21
-- reply > 30 min

-- ask Give me measured half-life, please, for this compound: O=C(OCOC(=O)c1c(F)ccc2c1OB(O)[C@@H]1C[C@H]21)OC1CCCCC1
-- reply > 60 min

-- ask Give me measured half-life, please, for this compound: O=C(OCOC(=O)C1COC1)c1c(F)ccc2c1OB(O)[C@@H]1C[C@H]21
-- reply 3.9 min

-- ask Give me measured half-life, please, for this compound: CN(C)C(=O)COC(=O)c1c(F)ccc2c1OB(O)[C@@H]1C[C@H]21
-- reply > 60 min

-- ask Give me measured half-life, please, for this compound: CC(=O)N1CCC[C@@H]1C(=O)OCOC(=O)c1c(F)ccc2c1OB(O)[C@@H]1C[C@H]21
-- reply > 30 min

-- ask Give me measured half-life, please, for this compound: COCCOC(=O)OCOC(=O)c1c(F)ccc2c1OB(O)[C@@H]1C[C@H]21
-- reply > 60 min

-- ask Give me measured half-life, please, for this compound: O=C(OCOC(=O)C1CCOCC1)c1c(F)ccc2c1OB(O)[C@@H]1C[C@H]21
-- reply 26 min

-- ask Give me measured half-life, please, for this compound: CC(=O)OCCOC(=O)OCOC(=O)c1c(F)ccc2c1OB(O)[C@@H]1C[C@H]21
-- reply > 30 min

-- ask Give me measured half-life, please, for this compound: Cc1oc(=O)oc1COC(=O)c1c(F)ccc2c1OB(O)[C@@H]1C[C@H]21
-- reply 3.7 min
